Measured pIC25 by item
# Species: Cavia porcellus
# Protocol Description: In vitro assessment of negative inotropy in the isolated Langendorff perfused guinea pig heart
# Assay type: functional
Just the number, please, no unit after it.

See these solved cases before continuing.
CCO/C(O)=C1\C(COCCNc2n[nH]c(N)n2)=NC(C)=C(C(=O)OC)C1c1cccc(C(F)(F)F)c1Cl (stereo not drawn)    6.3
CCO/C(O)=C1\C(COCCNc2cc(Cl)ncn2)=NC(C)=C(C(=O)OC)C1c1cccc(Cl)c1Cl (stereo not drawn)    7.7
CCO/C(O)=C1\C(COCCNc2nc(O)cc(-c3ccccc3)n2)=NC(C)=C(C(=O)OC)C1c1cccc(Cl)c1Cl (stereo not drawn)    6.9
CCO/C(O)=C1\C(COCCNc2nccc(O)n2)=NC(C)=C(C(=O)OC)C1c1cccc(Cl)c1Cl (stereo not drawn)    6.7
COC(=O)C1=C(C)NC(C)=C(C(=O)OC)C1c1ccccc1[N+](=O)[O-] [NIFEDIPINE]    7.5

Exercise: Please report the measured pIC25 for CCO/C(O)=C1\C(COCCNc2nccnc2NC)=NC(C)=C(C(=O)OC)C1c1cccc(Cl)c1Cl (stereo not drawn)
Solution: 7

Exercise: Could you please provide reported pIC25 for CCO/C(O)=C1\C(COCCNc2noc(N)n2)=NC(C)=C(C(=O)OC)C1c1cccc(Cl)c1Cl (stereo not drawn) ? Thanks!
Solution: 7.3

Exercise: Consider the compound CCO/C(O)=C1\C(COCC/N=C(/N)S)=NC(C)=C(C(=O)OC)C1c1cccc(Cl)c1Cl (stereo not drawn) and give its recorded pIC25.
Solution: 7.2

====

# System: Canis familiaris
# Protocol Description: Percent decrease in coronary vascular resistance in dogs at 150 u/kg intravenous dose
# Format: functional, Canis lupus familiaris
Readout: Decrease in CVR (%)
Write the answer as a number in %, unit excluded.

COC(=O)C1=C(C)NC(C)=C(C(=O)OC)C1c1ccccc1[N+](=O)[O-] [NIFEDIPINE]    77
CCO/C(O)=C1\C(COCCNc2n[nH]c(N)n2)=NC(C)=C(C(=O)OC)C1c1cccc(Cl)c1Cl (stereo not given)    70
CCO/C(O)=C1\C(COCCNc2ccnc(O)n2)=NC(C)=C(C(=O)OC)C1c1cccc(Cl)c1Cl (stereo not given)    62
CCO/C(O)=C1\C(COCCNc2nccc(O)n2)=NC(C)=C(C(=O)OC)C1c1cccc(Cl)c1Cl (stereo not given)    70

Okay, now this compound:
Exercise: Look up and state reported Decrease in CVR for CCO/C(O)=C1\C(COCCNc2noc(N)n2)=NC(C)=C(C(=O)OC)C1c1cccc(Cl)c1Cl (stereo not given)
Solution: 76

====

The following molecules are listed with their measured pIC25 values.
# Species: Cavia porcellus
# Protocol Description: In vitro assessment of negative inotropy in the isolated Langendorff perfused guinea pig heart
# Format: functional
Give the figure by itself; no unit, no explanation.

CCO/C(O)=C1\C(COCCNc2ccnc(O)n2)=NC(C)=C(C(=O)OC)C1c1cccc(Cl)c1Cl (stereo not given)    6.7
CCO/C(O)=C1\C(COCCNc2nc(N)n(C)n2)=NC(C)=C(C(=O)OC)C1c1cccc(Cl)c1Cl (stereo not given)    6.8
CCO/C(O)=C1\C(COCCNc2n[s+]([O-])nc2N)=NC(C)=C(C(=O)OC)C1c1cccc(Cl)c1Cl (stereo not given)    7

Exercise: Indicate the recorded pIC25 value for this molecule: CCO/C(O)=C1\C(COCCNc2n[nH]c(N)n2)=NC(C)=C(C(=O)OC)C1c1cccc(Cl)c1Cl (stereo not given)
Solution: 6.3

Exercise: Look up pIC25 of CCO/C(O)=C1\C(COCCNc2n[nH]c(N)n2)=NC(C)=C(C(=O)OC)C1c1ccccc1Cl (stereo not given) and report it.
Solution: 6.2

Exercise: Please look at this molecule and report its pIC25: CCO/C(O)=C1\C(C)=NC(COCCNc2n[nH]c(N)n2)=C(C(=O)OC)C1c1cccc(Cl)c1Cl (stereo not given)
Solution: 5.5

Exercise: Find the measured pIC25 of CCO/C(O)=C1\C(COCCNc2cc(O)ncn2)=NC(C)=C(C(=O)OC)C1c1cccc(Cl)c1Cl (stereo not given) and report it.
Solution: 7.2

Exercise: Quote pIC25 reported for CCO/C(O)=C1\C(COCCNc2n[s+]([O-])nc2OC)=NC(C)=C(C(=O)OC)C1c1cccc(Cl)c1Cl (stereo not given) please.
Solution: 7.1

Exercise: For the molecule CCO/C(O)=C1\C(COCCNc2n[nH]c(O)n2)=NC(C)=C(C(=O)OC)C1c1cccc(Cl)c1Cl (stereo not given) , report pIC25.
Solution: 6.4

Exercise: Write down pIC25 measured for item CCOC(=O)NC(=S)NCCOCC1=C(C(=O)OCC)C(c2cccc(Cl)c2Cl)/C(=C(\O)OC)C(C)=N1 (stereo not given)
Solution: 6.2

====

# Species on record: Cavia porcellus
# Protocol Description: In vitro assessment of negative inotropy in the isolated Langendorff perfused guinea pig heart
# Format: functional
Lab note: anything with pIC25 at or over 7 counts as Condition met; the rest go in Condition not met.

CCO/C(O)=C1\C(COCCNc2nccnc2Cl)=NC(C)=C(C(=O)OC)C1c1cccc(Cl)c1Cl (stereo not given)    Condition met
CCO/C(O)=C1\C(COCCNC2=NC(=O)C(C)(C)N2)=NC(C)=C(C(=O)OC)C1c1cccc(Cl)c1Cl (stereo not given)    Condition not met
CCO/C(O)=C1\C(COCCNc2nc(O)cs2)=NC(C)=C(C(=O)OC)C1c1cccc(Cl)c1Cl (stereo not given)    Condition not met

Shift focus to the following entry.
Exercise: Does the reported pIC25 for CCO/C(O)=C1\C(COCCNc2n[nH]c(N)n2)=NC(C)=C(C(=O)OC)C1c1cccnc1Cl (stereo not given) fall at or above the 7 mark?
Solution: Condition not met
